Target: T1, IL10Rβ (UniProt Q08334 20-220, limits assumed)
T1 construct: Soluble protein used at 500, 1000 and 2000 nM in BLI; also called IL10RB; interleukin-10 receptor beta
T1 sequence (looked up): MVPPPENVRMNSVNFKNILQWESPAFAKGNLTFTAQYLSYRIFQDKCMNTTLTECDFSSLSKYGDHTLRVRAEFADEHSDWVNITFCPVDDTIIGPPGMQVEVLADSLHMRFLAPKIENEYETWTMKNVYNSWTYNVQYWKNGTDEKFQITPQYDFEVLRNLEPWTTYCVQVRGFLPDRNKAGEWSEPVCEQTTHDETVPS
Assay: BLI (BLItz), biotinylated IFNλ4 on streptavidin sensor, IL10Rβ in solution at 500-2000 nM, 1:1 global fit
Hi there, I'd appreciate the recorded Kd for every entry that follows.
Kindly provide the numeric value in nM only, without the unit symbol.

For the binder shown here, eIFNλ4 (wild-type IFNλ4 produced in E. coli, R&D Systems 9165-IL) (ligand, not glycosylated (E. coli); biotinylated for BLI, Bought as protein and used as the wild-type control; also called eIFNL4; control wild-type IFNλ4) MAPRRCLLSHYRSLEPRTLAAAKALRDRYEEEALSWGQRNCSFRPRRDPPRPSSCARLRHVARGIADAQAVLSGLHRSELLPGAGPILELLAAAGRDVAACLELARPGSSRKVPGAQKRRHKPRRADSPRCRKASVVFNLLRLLTWELRLAAHSGPCL , give the reported Kd.
71

Consider the binder M1 (L28N) IFNλ4 variant (ligand, N-glycan at Asn61 (L28N not glycosylated); biotinylated for BLI, Secreted from Expi293F cells as a C-terminal Protein A fusion; Protein A was removed by thrombin at an LVPRGS site; Monomer by SDS-PAGE; also called L28N (M1)) AAPRRCNLSHYRSLEPRTLAAAKALRDRYEEEALSWGQRNCSFRPRRDPPRPSSCARLRHVARGIADAQAVLSGLHRSELLPGAGPILELLAAAGRDVAACLELARPGSSRKVPGAQKRRHKPRRADSPRCRKASVVFNLLRLLTWELRLAAHSGPCL and give its measured Kd.
49

Consider the binder shown here: M3 (P73N) IFNλ4 variant (ligand, N-glycans at Asn61 and at P73N (Asn73); biotinylated for BLI, Secreted from Expi293F cells as a C-terminal Protein A fusion; Protein A was removed by thrombin at an LVPRGS site; Monomer by SDS-PAGE; also called P73N (M3)) AAPRRCLLSHYRSLEPRTLAAAKALRDRYEEEALSWGQRNCSFRPRRDPPRNSSCARLRHVARGIADAQAVLSGLHRSELLPGAGPILELLAAAGRDVAACLELARPGSSRKVPGAQKRRHKPRRADSPRCRKASVVFNLLRLLTWELRLAAHSGPCL What is its recorded Kd?
51

Look up Kd for this binder: M7 (L28N+P73N) IFNλ4 variant (ligand, N-glycans at Asn61 and at P73N (Asn73); L28N not glycosylated; biotinylated for BLI, Secreted from Expi293F cells as a C-terminal Protein A fusion; Protein A was removed by thrombin at an LVPRGS site; Monomer by SDS-PAGE; also called double mutant) AAPRRCNLSHYRSLEPRTLAAAKALRDRYEEEALSWGQRNCSFRPRRDPPRNSSCARLRHVARGIADAQAVLSGLHRSELLPGAGPILELLAAAGRDVAACLELARPGSSRKVPGAQKRRHKPRRADSPRCRKASVVFNLLRLLTWELRLAAHSGPCL
49
